Source: paper PMC11047535

Experiment Summary: Pharmacokinetics in rat plasma after single subcutaneous administration (LC-MS/MS, non-compartmental analysis)
Assay type: in vivo, Sprague-Dawley (SD) rats
Experimental Conditions: Sprague-Dawley, rat, in vivo, sc, 8 mg/kg, SD rats, single s.c. dose 8 mg/kg, plasma, LC-MS/MS, NCA, n = 5; read-out: AUC0–24 h
Positions of bridges follow the written chain, without caps; N, C: chain ends. Non-standard residues stand in square brackets, D forms with d. Residues, ends and D or L forms follow the SMILES beside them. *: point of attachment. X1 = CC[C@H](C)CCCCC(=O)*; Dab = NCC[C@H](N)C(=O)O
Reported Endpoint: AUC(0-t) (ng·h/mL)

[[record]]
compound = "CC[C@H](C)CCCCC(=O)N[C@@H](CCN)C(=O)N[C@H](C(=O)N[C@@H](CCN)C(=O)N[C@H]1CCNC(=O)[C@H]([C@@H](C)O)NC(=O)[C@H](CCN)NC(=O)[C@H](CCN)NC(=O)[C@H](CC(C)C)NC(=O)[C@@H](Cc2ccccc2)NC(=O)[C@H](CCN)NC1=O)[C@@H](C)O [PMB, polymyxin B] (X1-[Dab]T[Dab][Dab][Dab][dF]L[Dab][Dab]T; lactam 4-C)"
observed = 31200


###

Experiment Summary: Pharmacokinetics in rat plasma after single subcutaneous administration (LC-MS/MS, non-compartmental analysis)
Type: in vivo, Sprague-Dawley (SD) rats
Experimental Conditions: Sprague-Dawley, rat, in vivo, sc; SD rats, single s.c. dose 8 mg/kg, plasma, LC-MS/MS, NCA, n = 5; read-out: T1/2 (terminal half-life) (converted)
Positions of bridges follow the written chain, without caps; N, C: chain ends. Non-standard residues stand in square brackets, D forms with d. Residues, ends and D or L forms follow the SMILES beside them. *: point of attachment. X1 = CC[C@H](C)CCCCC(=O)*; Dab = NCC[C@H](N)C(=O)O
Reported Endpoint: half-life (h)

[[record]]
compound = "CC[C@H](C)CCCCC(=O)N[C@@H](CCN)C(=O)N[C@H](C(=O)N[C@@H](CCN)C(=O)N[C@H]1CCNC(=O)[C@H]([C@@H](C)O)NC(=O)[C@H](CCN)NC(=O)[C@H](CCN)NC(=O)[C@H](CC(C)C)NC(=O)[C@@H](Cc2ccccc2)NC(=O)[C@H](CCN)NC1=O)[C@@H](C)O [PMB, polymyxin B] (X1-[Dab]T[Dab][Dab][Dab][dF]L[Dab][Dab]T; lactam 4-C)"
observed = 4.09


###

Experiment Summary: Pharmacokinetics in rat plasma after single subcutaneous administration (LC-MS/MS, non-compartmental analysis)
Assay type: in vivo, Sprague-Dawley (SD) rats
Experimental Conditions: Sprague-Dawley, rat, in vivo, sc; SD rats, single s.c. dose 8 mg/kg, plasma, LC-MS/MS, NCA, n = 5
Positions of bridges follow the written chain, without caps; N, C: chain ends. Non-standard residues stand in square brackets, D forms with d. Residues, ends and D or L forms follow the SMILES beside them. *: point of attachment. X1 = CC[C@H](C)CCCCC(=O)*; Dab = NCC[C@H](N)C(=O)O
Reported Endpoint: Tmax (h)

[[record]]
compound = "CC[C@H](C)CCCCC(=O)N[C@@H](CCN)C(=O)N[C@H](C(=O)N[C@@H](CCN)C(=O)N[C@H]1CCNC(=O)[C@H]([C@@H](C)O)NC(=O)[C@H](CCN)NC(=O)[C@H](CCN)NC(=O)[C@H](CC(C)C)NC(=O)[C@@H](Cc2ccccc2)NC(=O)[C@H](CCN)NC1=O)[C@@H](C)O [PMB, polymyxin B] (X1-[Dab]T[Dab][Dab][Dab][dF]L[Dab][Dab]T; lactam 4-C)"
reported_endpoint = "Tmax"
units_label = "h"
observed = 6

